This listing pairs compounds with measured log10 TGI.
# Test system: UO-31 renal
# PROTOCOL DESCRIPTION: NCI tumour cell line growth inhibition, 48 h
MEASURED METRIC: log10 TGI (log10 of the value in µM)

• C=C(CNCCO)[C@@H]1CC[C@]2(CO)CC[C@]3(C)[C@H](CC[C@@H]4[C@@]5(C)CCC(NCCc6ccc(O)cc6)C(C)(C)[C@@H]5CC[C@]43C)[C@@H]12 (stereo not given in full) = 0.47
• NC1CCC(c2cc3ccccc3s2)(N2CCCCC2)CC1 (stereo not given) = 0.77
• CCC(=O)N1C/C(=C/c2ccc(OC)cc2)C(=O)/C(=C/c2ccc(OC)cc2)C1 = 0.43
• [Cl][Sn]([c]1ccccc1)[c]1ccccc1 = 1.49
• COc1ccc2c(c1)CC[C@@H]1[C@@H]2CC[C@]2(C)/C(=N/OCCN3CCCCC3)CC[C@@H]12 = 1.03
• O=C1CC(O)c2c(Cl)sc(Cl)c21 (stereo not given) = 1.36
• CCOC(=O)c1sc2c(C(=O)OCC)n3ccccc3c2c1N = 1.83
• CC[C@@]1(OC(=O)CCC(=O)O)C(=O)OCc2c1cc1n(c2=O)Cc2cc3ccccc3nc2-1 = -0.31
• O=[N+]([O-])/C=C\c1ccc2c(c1)OCO2 = 0.51
• OC1CCC(C2C3CCCCC3C3CCCCC3C2C2CCC(O)CC2)CC1 (stereo not given) = 1.56
• OC1CCC(Oc2cccc3cnc(Nc4ccc5nc[nH]c5c4)nc23)CC1 (stereo not given) = 0.27
• COC1CCC(OC2CC(C3(C)CCC4(CC(O)C(C)C(C(C)/C=C(\C)C(=O)C(C)CC(C)C(=O)O)O4)O3)OC3(OC(C4OC(O)(CO)C(C)CC4C)CC3C)C2C)OC1C (stereo not given) = 0.77

====

# Tested on: OVCAR-5 ovarian
# PROTOCOL DESCRIPTION: NCI tumour cell line growth inhibition, 48 h
This listing pairs compounds with measured GI50.
MEASURED METRIC: GI50

• ClCCn1cnc2c(SCc3ccccc3)ncnc21 = > 100 µM
• COc1cccc2c(=O)c3c(sc12)c(NCCCN)nc1ccccc13 = 1.65 µM
• COC1C(O)=C2C(=O)OC(C)(O)/C=C/C=C\C=C/C=C/C(c3ccccc3)NC(=O)/C=C/C=C/C=C/C=C/C2(C)C1O (stereo not given) = 0.0649 µM
• CCN(CC)CC(C)Nc1ccc(C)c2sc3ccccc3c(=O)c12 (stereo not given) = 2.95 µM
• Cc1ccc(N2C(=O)C(Cl)=C(Nc3cccc(O)c3)C2=O)cc1Cl = 16.5 µM
• [Cl][Sn]([c]1ccccc1)[c]1ccccc1 = 13.6 µM
• O=[N+]([O-])/C=C\c1ccc2c(c1)OCO2 = 11.5 µM
• CCOC(=O)/C(C1=CC(=O)C(=O)c2ccccc21)=C(/C)NCc1ccccc1 = 2.43 µM
• CC1(C)C(=O)/C(=C\c2ccco2)C[C@]2(C)[C@H]3CC=C4[C@@H]5C[C@](C)(C(=O)O)CC[C@]5(C)CC[C@@]4(C)[C@]3(C)CC[C@@H]12 = 15.6 µM
• Nc1ccc2c(c1)[O][Sn]([c]1ccccc1)([c]1ccccc1)[O]C2=O = 17.2 µM

====

# Test system: RPMI-8226 leukemia
Outcome codes: active, inactive

* CCN(CC)CC(C)Nc1ccc(C)c2sc3ccccc3c(=O)c12 (stereo not drawn) | inactive
* NC(N)=N/N=C/c1c(-c2cc(Cl)sc2Cl)nc2n1CCS2 | inactive
* COC(=O)c1ccc2c(c1)c1c(C)c3cnccc3c(C)c1n2C | active
* OCC1OC(N2C=C(c3nc4ccccc4s3)C3C=CC=CC32)C(O)C1O (stereo not drawn) | inactive
* OC1CCC(Oc2cccc3cnc(Nc4ccc5nc[nH]c5c4)nc23)CC1 (stereo not drawn) | active
* CCOC(=O)/C(C1=CC(=O)C(=O)c2ccccc21)=C(/C)NCc1ccccc1 | active
* Cc1ccc2c(c1)sc(-c1ccc(N(C)C)cc1)[n+]2C | active
* C=C(CNCCO)[C@@H]1CC[C@]2(CO)CC[C@]3(C)[C@H](CC[C@@H]4[C@@]5(C)CCC(NCCc6ccc(O)cc6)C(C)(C)[C@@H]5CC[C@]43C)[C@@H]12 (stereo partly drawn) | inactive
* CCCCS(=N)(=O)CC[C@H](N)C(=O)O (stereo partly drawn) | inactive
* NS(=O)(=O)c1ccc(/C=C/c2cccc(O)c2)cc1 | inactive
* CCC(=O)N1C/C(=C/c2ccc(OC)cc2)C(=O)/C(=C/c2ccc(OC)cc2)C1 | active
* Nc1ccc2c(c1)[O][Sn]([c]1ccccc1)([c]1ccccc1)[O]C2=O | inactive
* COc1ccc(-c2cn3ccnc3c(-c3ccc4ncn(C5CCCCC5)c4c3)n2)cc1 | inactive
* COc1cccc2c(=O)c3c(sc12)c(NCCCN)nc1ccccc13 | inactive
* Cn1nnnc1[N-]Cc1ccccc1.[Au+].c1ccc([PH+](c2ccccc2)c2ccccc2)cc1 | inactive
* O=C1NC(=O)C(c2ccccc2Cl)=C1Nc1cccc(O)c1 | inactive
* CC(O)C(NC(=O)C(CS)NC(=O)C(CO)NC(=O)C(CCCCN)NC(=O)C(Cc1c[nH]c2ccccc12)NC(=O)C(Cc1ccc(O)cc1)NC(=O)C(CS)NC(=O)C(N)Cc1ccccc1)C(N)=O (stereo not drawn) | inactive
* O=C(/C=C/c1ccc([N+](=O)[O-])o1)NNC(=O)c1cc2ccccc2cc1O | inactive
